Origin of measurements: the supplement of paper PMC11003180

Exercise: for every item that follows, state its recorded drug sensitivity score.
system: MDCK p60AmotL2-inducible + doxycycline (p60AmotL2 expressing); assay: drug sensitivity score (DSS) from 5-dose viability curve (DSS (area-based score, 0 = no response)); higher = more sensitive (stronger viability inhibition); extreme values may be limits of the assay; details: doxycycline: 10 ng/mL; 72 h
Number, no unit, nothing else.

Noted for COc1cc(NS(C)(=O)=O)ccc1Nc1c2ccccc2nc2ccccc12 : its drug sensitivity score reads 15.3

Noted for CN1CCN(C2CCC(n3cc(-c4ccc(Oc5ccccc5)cc4)c4c(N)ncnc43)CC2)CC1 (stereo unspecified) : its drug sensitivity score reads 14

Noted for COC(=O)N[C@@H](C)CNc1nccc(-c2cn(C(C)C)nc2-c2cc(Cl)cc(NS(C)(=O)=O)c2F)n1 : its drug sensitivity score reads 0

Noted for C[C@H](Nc1ncnc2nc[nH]c12)c1cc2cccc(Cl)c2c(=O)n1-c1ccccc1 : its drug sensitivity score reads 0

Noted for CN1CCN(C2CCN(C(=O)Nc3cc(Oc4ccc(NC(=O)C5(C(=O)Nc6ccc(F)cc6)CC5)c(F)c4)ccn3)CC2)CC1 : its drug sensitivity score reads 1

Noted for Cn1cc(C2=Nc3cc(NC(=O)C(N)C4CCCCC4)cc4c3C2=CNNC4=O)cn1 (stereo unspecified) : its drug sensitivity score reads 1.1

Noted for CCn1c(=O)c(-c2ccc(Cl)cc2Cl)cc2cnc(Nc3ccc(N4CCNCC4)c(F)c3)nc21 : its drug sensitivity score reads 2.3

Noted for O=C(O)C1(C(=O)O)CCC1.[NH2-].[NH2-].[Pt+2] : its drug sensitivity score reads 5

Noted for CO[C@H]1CC[C@H](N2C(=O)CNc3ncc(-c4ccc(C(C)(C)O)nc4)nc32)CC1 : its drug sensitivity score reads 5.2

Noted for CN1CCN(c2cc(C(=O)Nc3ccc4c(c3)-c3c(c(C(N)=O)nn3-c3ccc(F)cc3)CC4)c(Cl)cn2)CC1 : its drug sensitivity score reads 0.2

Noted for COc1cc(OC)cc(N(CCNC(C)C)c2ccc3ncc(-c4cnn(C)c4)nc3c2)c1 : its drug sensitivity score reads 0

Noted for N#CCNC(=O)c1ccc(-c2ccnc(Nc3ccc(N4CCOCC4)cc3)n2)cc1 : its drug sensitivity score reads 3.3

Noted for CCOCc1nc2c(N)nc3ccccc3c2n1CC(C)(C)O : its drug sensitivity score reads 0

Noted for C1=N/C2=N/c3ccc(OCCN4CCCC4)c(c3)COC/C=C/COCc3cccc(c3)C(=C1)N2 : its drug sensitivity score reads 10

Noted for CCC1=C[C@@H]2CN(C1)Cc1c([nH]c3ccccc13)[C@@](C(=O)OC)(c1cc3c(cc1OC)N(C)[C@H]1[C@@](O)(C(=O)OC)[C@H](OC(C)=O)[C@]4(CC)C=CCN5CC[C@]31[C@@H]54)C2 : its drug sensitivity score reads 34.2

Noted for COc1cc2c(Oc3ccc(NC(=O)C4(C(=O)Nc5ccc(F)cc5)CC4)cc3F)ccnc2cc1OCCCN1CCOCC1 : its drug sensitivity score reads 2.8
